- Test name: Drug concentrations in GI contents and mucosal tissues
- Format: in vivo, lambs
- Protocol conditions: sheep (lambs), abomasal mucosa, other: intraruminal, 0.2 mg/kg
Parameter measured: concentration at 2 days (ng/g)
State the answer as a number, implicitly in ng/g.

Can you look up the measured concentration at 2 days of `CO/N=C1\C[C@]2(C[C@@H]3C[C@@H](C/C=C(\C)C[C@@H](C)/C=C/C=C4\CO[C@@H]5[C@H](O)C(C)=C[C@@H](C(=O)O3)[C@]45O)O2)O[C@H](/C(C)=C/C(C)C)[C@H]1C` for me?
30.1

---

- Test name: Drug concentrations in GI contents and mucosal tissues
- Assay type: in vivo, lambs
- Protocol conditions: sheep (lambs), abomasal mucosa, other: intraruminal, 0.2 mg/kg
Parameter measured: concentration at 0.5 days
I'd appreciate it if you wrote the number followed by its unit.

Can you look up the measured concentration at 0.5 days of `CO/N=C1\C[C@]2(C[C@@H]3C[C@@H](C/C=C(\C)C[C@@H](C)/C=C/C=C4\CO[C@@H]5[C@H](O)C(C)=C[C@@H](C(=O)O3)[C@]45O)O2)O[C@H](/C(C)=C/C(C)C)[C@H]1C` for me?
65.5 ng/g
